Tested on: Pseudomonas aeruginosa
RUN_DESCRIPTION: Antibacterial activity against Pseudomonas aeruginosa PA14 harboring LecA deletion mutant assessed as growth inhibition after 18 to 20 hrs by broth microdilution assay
Type: functional
TEST_CONDITIONS: time 18-20 hrs
Reported MIC is given for each of the following compounds.
OUTCOME_MEASURE: MIC

> print(dat)
                               smiles.entry  assay.result
1  O=C(CCn1cc(CCN2CCN(c3cc4c(cc3F)c(=O)c(C(=O)O)cn4C3CC3)CC2)nn1)Nc1ccc(S[C@@H]2O[C@H](CO)[C@H](O)[C@H](O)[C@H]2O)cc1    > 64 µg/mL
2  O=C(O)c1cn(C2CC2)c2cc(N3CCNCC3)c(F)cc2c1=O    0.05 µg/mL
3  O=C(CCCn1cc(CN2CCN(c3cc4c(cc3F)c(=O)c(C(=O)O)cn4C3CC3)CC2)nn1)Nc1ccc(S[C@@H]2O[C@H](CO)[C@H](O)[C@H](O)[C@H]2O)cc1       8 µg/mL
4  O=C(CCn1cc(CN2CCN(c3cc4c(cc3F)c(=O)c(C(=O)O)cn4C3CC3)CC2)nn1)Nc1ccc(S[C@@H]2O[C@H](CO)[C@H](O)[C@H](O)[C@H]2O)cc1       8 µg/mL
5  O=C(Cn1cc(CCN2CCN(c3cc4c(cc3F)c(=O)c(C(=O)O)cn4C3CC3)CC2)nn1)Nc1ccc(S[C@@H]2O[C@H](CO)[C@H](O)[C@H](O)[C@H]2O)cc1    ≥ 64 µg/mL
6  O=C(CCCn1cc(CCN2CCN(c3cc4c(cc3F)c(=O)c(C(=O)O)cn4C3CC3)CC2)nn1)Nc1ccc(S[C@@H]2O[C@H](CO)[C@H](O)[C@H](O)[C@H]2O)cc1    > 64 µg/mL
7  O=C(CCCCn1cc(CCN2CCN(c3cc4c(cc3F)c(=O)c(C(=O)O)cn4C3CC3)CC2)nn1)Nc1ccc(S[C@@H]2O[C@H](CO)[C@H](O)[C@H](O)[C@H]2O)cc1    > 64 µg/mL
8  C[C@@H]1O[C@H](CNS(=O)(=O)c2ccc(CCn3cc(CN4CCN(c5cc6c(cc5F)c(=O)c(C(=O)O)cn6C5CC5)CC4)nn3)s2)[C@@H](O)[C@H](O)[C@@H]1O    ≥ 64 µg/mL
